RECORDED_METRIC: log10(intrinsic clearance, human liver microsomes) (log10 of the value in mL/min/kg)

In [3]: df
Out[3]:
                                   molecule  recorded_result
0  OC[C@H](Nc1cncc(-c2ccc3[nH]ncc3n2)c1)c1ccccc1             0.99
1                      NCc1cccnc1OCc1ccccc1             1.07
2        Cc1nc(C2(NCc3cccc(C#N)c3)CCCC2)no1             1.12
3  CCCCN(CC)c1nc(C)nc2c1c(C)c(C)n2-c1c(C)cc(C)cc1C             2.30
4          COc1ncc(-c2cccc(N(C)C)c2)c(OC)n1             2.29
5  Cc1cccc(/C=N/Nc2cc(N3CCOCC3)nc(OCCc3ccccn3)n2)c1             2.11
6      CN1CCN(Cc2noc(Cc3ccccc3)n2)c2ccccc21             2.53
7  CNCc1cc(N(C)C)nc(C2CCCN2C(=O)C2CN(Cc3ccc(Cl)cc3)C2)n1 (configuration not stated)             0.94
